# system_tested: monkey NPR1 (Macaca fascicularis)
# assay: Cellular cGMP production assay, monkey NPR1 expressing CHO-K1 cells (CisBio HTRF)
# Type: cell-based
# details: maximum cGMP production as percentage of the maximum cGMP produced with ANP, monkey NPR1 CHO-K1 cells
Here the recorded Monkey NPR1 Amax (% of ANP) is given for each entry.

Some solved cases for reference:
compound	result_value
CC[C@@H](Nc1nc2c(c(N[C@@H](CN3CCCC3)c3ccccc3)n1)CN(c1cccc(F)c1)CC2)[C@H]1CC[C@H](C(=O)O)CC1 [Compound 99]	94.886 % of ANP
CC[C@H]([C@H]1CC[C@H](C(=O)O)CC1)N(C)c1nc2c(c(N[C@@H](CN3CCC[C@H](C(F)F)C3)c3cnn(C)c3)n1)C[C@H](c1cccc(F)c1)CC2 [Compound 54]	103.704 % of ANP

Please tell me the measured Monkey NPR1 Amax (% of ANP) for CC[C@@H](Nc1nc2c(c(N[C@@H](CN3CC4CCC3C4)c3ccc(F)cc3)n1)C[C@H](c1ccccc1)CC2)[C@H]1CC[C@H](C(=O)O)CC1 (stereo partly drawn) [Compound 86] ; system: monkey NPR1 (Macaca fascicularis).
92.318 % of ANP

###

# system_tested: monkey NPR1 (Macaca fascicularis, UniProt A0A7N9DBT9)
# Sequence (A0A7N9DBT9 entry or part of it): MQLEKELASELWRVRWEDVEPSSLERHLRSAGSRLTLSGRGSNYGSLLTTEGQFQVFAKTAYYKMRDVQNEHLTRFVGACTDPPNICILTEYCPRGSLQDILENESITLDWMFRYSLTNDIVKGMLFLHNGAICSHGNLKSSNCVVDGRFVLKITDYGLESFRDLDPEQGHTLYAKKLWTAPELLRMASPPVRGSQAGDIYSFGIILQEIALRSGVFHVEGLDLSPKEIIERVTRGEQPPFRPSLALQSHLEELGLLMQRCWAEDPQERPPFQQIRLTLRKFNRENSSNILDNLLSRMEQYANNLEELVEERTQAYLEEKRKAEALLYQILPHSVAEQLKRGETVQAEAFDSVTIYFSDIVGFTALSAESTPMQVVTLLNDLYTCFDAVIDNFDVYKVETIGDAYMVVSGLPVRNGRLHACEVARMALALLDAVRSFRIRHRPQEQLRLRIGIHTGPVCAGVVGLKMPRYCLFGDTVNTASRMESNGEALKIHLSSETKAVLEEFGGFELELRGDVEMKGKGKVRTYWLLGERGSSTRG
# assay: Cellular cGMP production assay, monkey NPR1 expressing CHO-K1 cells (CisBio HTRF)
# Format: cell-based
endpoint_name: AC50 (nM)
Number only, in nM; omit the unit.

// worked examples, AC50 included
> print(dat)
                      smiles.representation                             system.tested  result.value
1  CC[C@@H](Nc1nc2c(c(N[C@@H](CN3C4CCCC3CCC4)c3cnn(CC)c3)n1)C[C@@H](c1cccc(F)c1)CC2)[C@H]1CC[C@H](C(=O)O)CC1  monkey NPR1 (Macaca fascicularis, UniProt A0A7N9DBT9)            73
2  CC[C@H]([C@H]1CC[C@H](C(=O)O)CC1)N(C)c1nc2c(c(N[C@@H](CN3C4CCCC3CC4)c3ccn(C)n3)n1)C[C@H](c1cccc(F)c1)CC2  monkey NPR1 (Macaca fascicularis, UniProt A0A7N9DBT9)           272
3  CC[C@@H](N(C)c1nc2c(c(N[C@@H](CN3C4CCCC3CC4)c3scnc3C)n1)C[C@H](c1cccc(F)c1)CC2)C12CC(C(=O)O)(C1)C2  monkey NPR1 (Macaca fascicularis, UniProt A0A7N9DBT9)           460
4  CC[C@H]([C@H]1CC[C@H](C(=O)O)CC1)N(C)c1nc2c(c(N[C@@H](CN3C4CCC3CC4)c3cnn(C)c3)n1)C[C@H](c1ccc(F)cc1)CC2  monkey NPR1 (Macaca fascicularis, UniProt A0A7N9DBT9)           196
5  CC[C@@H](N(C)c1nc2c(c(N[C@@H](CN3C4CCCC3CCC4)c3cnn(C)c3)n1)C[C@H](c1cccc(F)c1)CC2)C12CC(C(=O)O)(C1)C2  monkey NPR1 (Macaca fascicularis, UniProt A0A7N9DBT9)            58
6  CC[C@H]([C@H]1CC[C@H](C(=O)O)CC1)N(C)c1nc2c(c(N[C@@H](CN3CCC[C@H](C)C3)c3cnn(C)c3)n1)C[C@@H](c1cccc(F)c1)CC2  monkey NPR1 (Macaca fascicularis, UniProt A0A7N9DBT9)           162
7  CC[C@@H](Nc1nc2c(c(N[C@@H](CN3C4CCCC3CC4)c3scnc3C)n1)C[C@H](c1cccc(F)c1)CC2)[C@H]1CC[C@H](C(=O)O)CC1  monkey NPR1 (Macaca fascicularis, UniProt A0A7N9DBT9)            91
8  CC[C@@H](Nc1nc2c(c(N[C@@H](CN3C4CCCC3CCC4)c3cnn(C)c3)n1)C[C@H](c1cccc(F)c1)CC2)[C@H]1CC[C@H](C(=O)O)CC1  monkey NPR1 (Macaca fascicularis, UniProt A0A7N9DBT9)            92

Provide measured AC50 on monkey NPR1 (Macaca fascicularis, UniProt A0A7N9DBT9) for `CC[C@@H](N(C)c1nc2c(c(N[C@@H](CN3C4CCCC3CC4)c3sc(C)nc3C)n1)C[C@H](c1cccc(F)c1)CC2)C12CC(C(=O)O)(C1)C2` please.
271

Under monkey NPR1 (Macaca fascicularis, UniProt A0A7N9DBT9), report AC50 for `CC[C@H]([C@H]1CC[C@H](C(=O)O)CC1)N(C)c1nc2c(c(N[C@@H](CN3C4CCCC3CC4)c3ccnn3C)n1)C[C@H](c1cccc(F)c1)CC2`
946

Give AC50; test system monkey NPR1 (Macaca fascicularis, UniProt A0A7N9DBT9); compound `C[C@@H](Nc1nc2c(c(N[C@@H](CN3C4CCCC3CCC4)c3cnn(C)c3)n1)C[C@H](c1ccccc1)CC2)c1ccc(C(=O)O)c(F)c1`
1540

###

# system_tested: human NPR1 (Homo sapiens, UniProt P16066)
# Construct: host or cells: CHO-K1
# Sequence (P16066 33-1061): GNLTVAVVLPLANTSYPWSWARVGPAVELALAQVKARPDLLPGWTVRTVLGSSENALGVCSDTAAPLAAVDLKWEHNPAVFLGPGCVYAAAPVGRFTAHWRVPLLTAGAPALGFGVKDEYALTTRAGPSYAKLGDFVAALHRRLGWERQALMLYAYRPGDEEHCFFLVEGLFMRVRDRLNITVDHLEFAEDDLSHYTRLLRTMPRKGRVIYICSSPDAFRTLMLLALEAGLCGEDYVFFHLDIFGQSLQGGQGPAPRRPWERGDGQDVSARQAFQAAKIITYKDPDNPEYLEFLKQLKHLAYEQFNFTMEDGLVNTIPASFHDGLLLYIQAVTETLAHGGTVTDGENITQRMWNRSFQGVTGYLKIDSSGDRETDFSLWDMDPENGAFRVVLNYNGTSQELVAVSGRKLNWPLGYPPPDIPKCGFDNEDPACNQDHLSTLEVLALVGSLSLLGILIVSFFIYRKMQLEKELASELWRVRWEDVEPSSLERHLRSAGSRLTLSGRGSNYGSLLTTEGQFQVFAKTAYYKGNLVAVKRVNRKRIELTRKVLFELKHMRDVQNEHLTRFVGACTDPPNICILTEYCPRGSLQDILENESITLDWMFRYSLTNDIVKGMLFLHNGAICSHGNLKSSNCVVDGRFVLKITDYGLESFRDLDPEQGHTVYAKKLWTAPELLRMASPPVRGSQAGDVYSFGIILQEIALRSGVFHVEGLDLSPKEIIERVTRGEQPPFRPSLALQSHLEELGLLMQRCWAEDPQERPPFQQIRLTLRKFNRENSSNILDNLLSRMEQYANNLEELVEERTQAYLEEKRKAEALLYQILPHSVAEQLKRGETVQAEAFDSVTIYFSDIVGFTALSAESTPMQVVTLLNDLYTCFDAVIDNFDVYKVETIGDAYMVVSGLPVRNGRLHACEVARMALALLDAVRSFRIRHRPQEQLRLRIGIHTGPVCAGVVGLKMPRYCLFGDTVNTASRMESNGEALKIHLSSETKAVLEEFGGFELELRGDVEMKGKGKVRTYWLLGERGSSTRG
# assay: Cellular cGMP production assay, human NPR1 expressing CHO-K1 cells (CisBio HTRF)
# Format: cell-based
# details: cGMP production, 30 min at 37° C., 12-point dose-response from 30 μM
endpoint_name: log10 AC50 (log10 of the value in nM)
Use the decimal logarithm of AC50 (nM).

Record excerpt, results attached:
compound	result_value
CC[C@@H](N(C)c1nc2c(c(N[C@@H](CN3CCC[C@H](C)C3)c3cnn(C)c3)n1)C[C@H](c1cccc(F)c1)CC2)C12CC(C(=O)O)(C1)C2 [Compound 9]	1.94
CC[C@H]([C@H]1CC[C@H](C(=O)O)CC1)N(C)c1nc2c(c(N[C@@H](CN3CCCCC3)c3cnn(CC(F)(F)F)c3)n1)C[C@H](c1ccccc1)CC2 [Compound 167]	3.32
CC[C@@H](Nc1nc2c(c(N[C@@H](CN3CCCC3)c3ccccc3)n1)CN(c1cccc(F)c1)CC2)[C@H]1CC[C@H](C(=O)O)CC1 [Compound 99]	2.55
CC[C@H]([C@H]1CC[C@H](C(=O)O)CC1)N(C)c1nc2c(c(N[C@@H](CN3CCC(C)CC3)c3cnn(C)c3)n1)C[C@H](c1ccccc1)CC2 [Compound 145]	3.02
CC[C@H]([C@H]1CC[C@H](C(=O)O)CC1)N(C)c1nc2c(c(N[C@@H](CN3CCC[C@H](COC)C3)c3cnn(C)c3)n1)C[C@H](c1ccccc1)CC2 [Compound 83]	2.45

Quickly give me recorded log10 AC50 for CC[C@@H](N(C)c1nc2c(c(N[C@@H](CN3C4CCCC3CCC4)c3cnn(C)c3)n1)C[C@H](c1cccc(F)c1)CC2)C12CC(C(=O)O)(C1)C2 [Compound 6]
1.89

Consider the compound CC[C@H]([C@H]1CC[C@H](C(=O)O)CC1)N(C)c1nc2c(c(N[C@@H](CN3CCC[C@H](C)C3)c3cnn(C)c3)n1)C[C@H](c1ccccc1F)CC2 [Compound 48] and give its recorded log10 AC50.
2.26

Give me measured log10 AC50, please, for this compound: CC[C@H]([C@H]1CC[C@H](C(=O)O)CC1)N(C)c1nc2c(c(N[C@@H](CN3CCC[C@H](CF)C3)c3cnn(C)c3)n1)C[C@H](c1cccc(F)c1)CC2 [Compound 19]
2.03

Answer with the recorded log10 AC50 of CC[C@H]([C@H]1CC[C@H](C(=O)O)CC1)N(C)c1nc2c(c(N[C@@H](CN3CCCCC3)c3cnn(C)c3)n1)C[C@H](c1ccccc1)CC2 [Compound 118] only.
2.73

Provide only the value of recorded log10 AC50 for CC(Nc1nc2c(c(N[C@@H](CN3CCCC3)c3ccccc3)n1)CC(c1ccccc1)CC2)[C@H]1CC[C@H](C(=O)O)CC1 (some centres unmarked) [Compound 158]
3.16

Output measured log10 AC50 for this item: CC[C@H]([C@H]1CC[C@H](C(=O)O)CC1)N(C)c1nc2c(c(N[C@H](c3cnn(C)c3)C(C)(C)N3CCCCC3)n1)C[C@H](c1ccccc1)CC2 [Compound 173]
3.62
